test context: in formic acid, 319.5 K

| smiles notation | solubility (mole fraction) |
| --- | --- |
| Cc1ccc(S(=O)(=O)[O-])cc1Cl.[Na+] | 0.0458 |

---

test context: in DMF, 333.3 K
observable: solubility (mole fraction)

| smiles notation | observable | recorded measurement |
| --- | --- | --- |
| Cc1ccc(S(=O)(=O)[O-])cc1Cl.[Na+] | solubility (mole fraction) | 0.0268 |

---

test context: in water, 331.1 K
observable: solubility (mole fraction)

| smiles notation | observable | recorded measurement |
| --- | --- | --- |
| Cc1ccc(S(=O)(=O)[O-])cc1Cl.[Na+] | solubility (mole fraction) | 0.0139 |
